# Target under test: Rap guanine nucleotide exchange factor 3 (Homo sapiens) (UniProt O95398)
# Sequence (O95398 whole entry, looked up): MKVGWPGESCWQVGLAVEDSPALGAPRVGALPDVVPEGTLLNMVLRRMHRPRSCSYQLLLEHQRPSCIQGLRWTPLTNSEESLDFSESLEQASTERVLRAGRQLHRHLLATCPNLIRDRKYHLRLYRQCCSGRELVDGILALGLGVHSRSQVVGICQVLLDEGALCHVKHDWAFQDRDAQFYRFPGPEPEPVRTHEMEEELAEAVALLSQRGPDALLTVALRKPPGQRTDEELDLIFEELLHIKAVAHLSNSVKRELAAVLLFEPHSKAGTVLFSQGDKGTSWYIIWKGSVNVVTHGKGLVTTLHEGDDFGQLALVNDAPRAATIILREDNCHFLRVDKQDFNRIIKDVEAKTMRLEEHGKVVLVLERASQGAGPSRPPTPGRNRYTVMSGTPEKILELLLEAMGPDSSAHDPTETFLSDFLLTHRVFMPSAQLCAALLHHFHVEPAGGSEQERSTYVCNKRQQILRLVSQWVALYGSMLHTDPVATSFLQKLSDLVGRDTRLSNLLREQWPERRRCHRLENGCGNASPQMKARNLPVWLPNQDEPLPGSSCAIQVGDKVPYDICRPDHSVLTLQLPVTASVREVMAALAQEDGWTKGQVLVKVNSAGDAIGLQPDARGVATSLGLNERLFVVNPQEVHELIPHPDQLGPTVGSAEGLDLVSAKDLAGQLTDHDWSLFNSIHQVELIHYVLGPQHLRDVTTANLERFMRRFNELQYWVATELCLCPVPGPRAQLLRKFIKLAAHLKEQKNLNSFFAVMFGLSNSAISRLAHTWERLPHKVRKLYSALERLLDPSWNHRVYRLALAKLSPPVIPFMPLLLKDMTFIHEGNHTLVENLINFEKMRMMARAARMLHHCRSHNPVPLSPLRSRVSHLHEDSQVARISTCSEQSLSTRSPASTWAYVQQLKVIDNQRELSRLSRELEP
# Assay explanation: Counterscreen qHTS for antagonist of cAMP-regulated guanine nucleotide exchange factor 3 (EPAC1) (AID 1645888);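 note: fluorescence loss as bound BODIPY-GDP is released from Rap1B; % of control where 0% means no effect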
# Experimental setup: Rap1B-BODIPY-GDP nucleotide exchange, fluorescence; series mostly up to 154 µM
Records with an inconclusive call do not appear. Active and inactive are the calls of the source. Calls come from the whole dose curve; as a rule, active = well fitted inhibition curve with a large enough effect; inconclusive = small, poorly fitted or top-dose-only effect; inactive = no such curve, though single readings can be large or run the other way.
Property label: activity change, negative = inhibition

Use these answered entries as a reference point.
> print(dat)
                                   compound                          property.label                 endpoint.result
1  Cc1cc(C=C2C(=O)NC(=S)NC2=O)c(C)n1C1CCCC1  activity change, negative = inhibition                        inactive
2  Cc1oc(-c2ccccc2)nc1CN1C(=O)CN=C(c2ccccc2)c2ccccc21  activity change, negative = inhibition  -7.89% [at 30.8 µM] (inactive)
3   O=C1NC(=S)N(c2ccccc2)C(=O)/C1=C/c1ccco1  activity change, negative = inhibition                        inactive
4  Cn1cccc1/C=C1\C(=O)NC(=O)N(Cc2ccco2)C1=O  activity change, negative = inhibition  -2.64% [at 30.8 µM] (inactive)
5  O=c1[nH]c(=O)n(-c2cccc(F)c2)c(O)c1/C=C1\C=Nc2ccccc21  activity change, negative = inhibition                        inactive

We now examine a further compound.
# input Which activity change, negative = inhibition value belongs to c1ccc(C(c2ccccc2)c2cccnc2)cc1 ?
# output inactive

Where these numbers come from: PubChem BioAssay (NCATS)
